Hello, the source for this data is ChEMBL document CHEMBL1938253, in case you need it.

# TEST NAME: in vitro
# CONDITION SUMMARY: human, liver microsomes
MEASURED PARAMETER: microsomal CLint at 1 h, 5 µM (µL/min/mg)

Use these answered entries as a reference point.
CPD SMILES: Cc1cc(C)c2cc1C(=O)NCCNC(=O)OCCSc1cc-2nc(N)n1
MEASURED NUMBER: 9.3

CPD SMILES: Cc1cc(C)c2cc1C(=O)NCCCC(=O)NCCSc1cc-2nc(N)n1
MEASURED NUMBER: 1

CPD SMILES: Cc1cc(C)c2cc1C(=O)NCCCCNC(=O)CCSc1cc-2nc(N)n1
MEASURED NUMBER: 5.1

CPD SMILES: Cc1cc(C)c2cc1C(=O)NCCNC(=O)CCCSc1cc-2nc(N)n1
MEASURED NUMBER: 5.4

1. CSc1nc(N)nc(-c2ccc3c4c(cc(Cl)cc24)COC3)n1
2. Cc1cc(C)c2cc1C(=O)NCCOC(=O)NCCSc1cc-2nc(N)n1
3. Cc1cc(C)c2cc1C(=O)NCCCCCNC(=O)CCSc1cc-2nc(N)n1
Ask | Task field, ranking: reported microsomal CLint at 1 h, 5 µM, descending order. Use the labels to give the ranking in the order requested.
Reply | 1, 2, 3
